# System: HCC 2998
# Assay Overview: NCI tumour cell line growth inhibition, 48 h
The source made the active and inactive calls. Rule as the data show it: active = GI50 up to about 1.1 µM and inactive = higher. Where a SMILES comes first, the peptide text is derived from it. The star is where a group is joined. Boc = CC(C)(C)OC(=O)*
Measured Quantity: GI50

Consider the worked cases shown below.
CC(C)(C(=O)NN)c1ccccc1
> 100 µM (inactive)
CC1CC(OP(=O)(OCc2ccccc2)OCc2ccccc2)[C@@H](OCc2ccccc2)C(OCc2ccccc2)C1OCc1ccccc1 (some centres not stated)
> 100 µM (inactive)
Cc1ccc(NC(=O)CC2SC(=N)NC2=O)cc1C (configuration not stated)
75 µM (inactive)
O=C(NCCN1CCCC1)c1cn2c(ccc3sc4ccccc4c(=O)c32)n1
6.56 µM (inactive)
C=CCN(CCN(CC=C)S(=O)(=O)c1ccc(C)cc1)S(=O)(=O)c1ccc(C)cc1
> 100 µM (inactive)
CCOC(=O)C(CC(C)C)NC(=O)C(Cc1ccccc1)NC(=O)CNC(=O)OC(C)(C)C (stereo not drawn) (Boc-Gly-Phe-Leu-OEt; configuration not given here)
19.7 µM (inactive)

Turning now to a further record.
### Prompt Entry CC(=O)Oc1c(C)c2c(c3ncccc13)OC(C)C2 (configuration not stated) needs its GI50 filled in; supply it.
### Response 12.8 µM (inactive)

Where these numbers come from: ChEMBL document CHEMBL1201862
